# SYSTEM: UniProt:P25105
# Sequence (P25105 whole entry): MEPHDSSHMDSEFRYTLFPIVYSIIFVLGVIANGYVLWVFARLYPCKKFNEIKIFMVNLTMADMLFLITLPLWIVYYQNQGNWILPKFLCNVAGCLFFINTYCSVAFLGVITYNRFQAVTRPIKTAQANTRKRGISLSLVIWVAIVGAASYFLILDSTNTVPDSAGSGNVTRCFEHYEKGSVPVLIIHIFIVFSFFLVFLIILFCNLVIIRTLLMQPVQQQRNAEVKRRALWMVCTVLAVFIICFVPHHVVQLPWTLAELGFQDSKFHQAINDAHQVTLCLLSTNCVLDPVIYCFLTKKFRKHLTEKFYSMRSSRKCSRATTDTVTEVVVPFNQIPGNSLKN
# TEST: agonist-induced superoxide release (isoluminol chemiluminescence) in human neutrophils, abolished by PAFR antagonist WEB2086; Ca2+ mobilization EC50 […]
METRIC_NAME: EC50

Quick check: EC50 of "CCCCCCCCCCCCCCCCOC[C@H](COP(=O)([O-])OCC[N+](C)(C)C)OC(C)=O" ?
~800 nM
